Test system: HT-29
ASSAY_DETAILS: Metabolic stability in human HT-29 multicellular layer assessed as apparent first-order rate constant under anoxic condition
Type: ADME, cell-based
# label = bin(measured Activity), where bins are bucket A: < 0.5 min⁻¹; bucket B: ≥ 0.5 min⁻¹ and < 0.7 min⁻¹; bucket C: ≥ 0.7 min⁻¹

Here are 5 compounds together with their reported answers.
>  <COMPOUND>
CC1Cc2cc3c(cc2C1)[n+]([O-])c(CCCO)n[n+]3[O-] (centres undefined)

>  <TEST_SYSTEM>
HT-29

>  <ANSWER_LABEL>
bucket A

$$$$
>  <COMPOUND>
CCc1n[n+]([O-])c2cc3c(cc2[n+]1[O-])CC(CO)C3 (centres undefined)

>  <TEST_SYSTEM>
HT-29

>  <ANSWER_LABEL>
bucket A

$$$$
>  <COMPOUND>
CCc1n[n+]([O-])c2cc3c(cc2[n+]1[O-])CC(CCO)C3 (centres undefined)

>  <TEST_SYSTEM>
HT-29

>  <ANSWER_LABEL>
bucket B

$$$$
>  <COMPOUND>
CN(C)CCNc1n[n+]([O-])c2cc3c(cc2[n+]1[O-])OCC3

>  <TEST_SYSTEM>
HT-29

>  <ANSWER_LABEL>
bucket B

$$$$
>  <COMPOUND>
[O-][n+]1nc(NCCN2CCCCC2)[n+]([O-])c2cc3c(cc21)CCC3

>  <TEST_SYSTEM>
HT-29

>  <ANSWER_LABEL>
bucket C

$$$$

Prompt: Lab log: CCCN(CCC)CCNc1n[n+]([O-])c2c3c(ccc2[n+]1[O-])CCC3 — assign Activity category
Completion: bucket C

Prompt: Repeat with CC1Cc2cc3c(cc2C1)[n+]([O-])c(NCCCN1CCOCC1)n[n+]3[O-] (centres undefined)
Completion: bucket A

Prompt: Repeat with CC1Cc2cc3c(cc2C1)[n+]([O-])c(NCCN(C)C)n[n+]3[O-] (centres undefined)
Completion: bucket C

Prompt: Repeat with CCN(CC)CCNc1n[n+]([O-])c2cc3c(cc2[n+]1[O-])OCC3
Completion: bucket A

Prompt: Repeat with CN(C)CCNc1n[n+]([O-])c2c3c(ccc2[n+]1[O-])CCC3
Completion: bucket C

Prompt: Repeat with CC1Cc2cc3c(cc2C1)[n+]([O-])c(CCCN1CCOCC1)n[n+]3[O-] (centres undefined)
Completion: bucket C

----------
Give measured solubility for each item. Keep answers brief.
ASSAY_DETAILS: Solubility at 22 degC in culture medium in presence of 5% fetal calf serum
Assay type: physicochemical
EXPERIMENTAL_SETUP: culture medium with 5% fetal calf serum; read-out: solubility

>  <COMPOUND>
CCc1n[n+]([O-])c2cc3c(cc2[n+]1[O-])CC(CCN1CCOCC1)C3 (stereo not given)

>  <solubility>
> 51 mM

$$$$

Hey, quick one: what's solubility for each of these?
1. CN(C)CCNc1n[n+]([O-])c2c3c(ccc2[n+]1[O-])CCC3
2. CCN(CC)CCNc1n[n+]([O-])c2c3c(ccc2[n+]1[O-])CCC3
3. CC1Cc2cc3c(cc2C1)[n+]([O-])c(NCCN(C)C)n[n+]3[O-] (stereo not given)
4. CN(C)CCNc1n[n+]([O-])c2cc3c(cc2[n+]1[O-])CCC3

Completion:
["> 54 mM", "> 49 mM", "> 49 mM", "> 51 mM"]
